test system: OVCAR-8 ovarian; experiment: NCI tumour cell line growth inhibition, 48 h
experimental readout: TGI

- compound: "N#Cc1sc2c(c1OC(=O)c1ccc(Cl)cc1Cl)c(=O)n(-c1ccccc1)c(=S)n2-c1ccccc1"
  TGI: "> 100 µM"
- compound: "O=C1CCCCN1"
  TGI: "> 1120 µM"
- compound: "O=[N+]([O-])c1cccc(C2=NN(c3ccccc3)C3c4ccccc4OCC23)c1 (stereo unspecified)"
  TGI: "> 100 µM"
- compound: "OCCN(CCO)c1nc(N2CCCCC2)c2nc(N(CCO)CCO)nc(N3CCCCC3)c2n1"
  TGI: "> 100 µM"
- compound: "C=CCCCN1CCCCC1=S"
  TGI: "> 100 µM"

Query block: Recorded TGI for CCN(CCO)CCCC(C)Nc1ccnc2cc(Cl)ccc12 (stereo unspecified) , please?
Result block: > 100 µM

Query block: Next compound: `CC1=C2[C@@H](CC1)[C@]1(C)O[C@@](C(C)C)(C[C@H]1OC(=O)CO)[C@H]2OC(=O)CCCc1ccccc1`
Result block: 26.8 µM

----------
system: T-47D breast; experiment: NCI tumour cell line growth inhibition, 48 h
experimental readout: TGI

- compound: "O=C1/C(=C/c2ccc(F)cc2)CN(C(=O)C(Cl)Cl)C/C1=C\\c1ccc(F)cc1"
  TGI: "3.6 µM"
- compound: "O=S(=O)(O)n1ccnc1 (tested in a mixture with another compound)"
  TGI: "> 100 µM"

Turning now to a further compound:
Query block: Returns the measured TGI for the input compound. Input: `C#CCOC(=O)/C=C/C(=O)Oc1ccc2c(C)cc(=O)oc2c1`
Result block: > 100 µM

----------
tested on: SK-OV-3 ovarian; assay: NCI tumour cell line growth inhibition, 48 h; in the data active means GI50 below about 0.43 µM; inactive means the rest
Log the outcome using a class from TRUE (active), FALSE (inactive)

Known results for compounds:
- compound: "O=C(c1ccccc1)C1OC1C(=O)c1ccccc1 (stereo not given)"
  test target: "SK-OV-3 ovarian"
  label class: "FALSE"
- compound: "C#Cc1cccc(NC(=O)c2cccc(NC(=O)CCl)c2)c1"
  test target: "SK-OV-3 ovarian"
  label class: "FALSE"
- compound: "Cc1c[nH]c(=O)n(Cc2nnc(CCC(=O)c3nc4ccccc4[nH]3)o2)c1=O"
  test target: "SK-OV-3 ovarian"
  label class: "FALSE"

Query block: Name the outcome recorded for `COc1ccc2c(c1)C(=O)c1c-2c(N2CCN(C(=O)CCNCCNCCN)CC2)nc2ccccc12` in the assay.
Result block: FALSE

Query block: Input `COc1ccc(-c2oc3c(OC)c(OC)c(OC)c(O)c3c(=O)c2OC)cc1O`
Result block: TRUE

Query block: Entry CC1OC(CC(=O)O)Cc2c1c(O)c1c(O)cc(-c3cc(=O)c4c(=O)c5c(c(=O)c=4c3=O)CC(CC(=O)O)OC5C)c(O)c1c2O (stereo not given) please
Result block: FALSE

Query block: // next record COc1ccc2nc3c(cc2c1)C(=O)CC(c1ccccc1)C3 (stereo not given)
Result block: FALSE

Query block: Queued: `COc1cc2c(/C=C3/C(=O)Nc4ccc(O)cc43)c(Cl)n(Cc3cc(OC)c(OC)c(OC)c3)c2cc1C`
Result block: FALSE

Query block: Next: `CCCCc1n(Cc2ccc3ccccc3n2)cc[n+]1Cc1ccc2ccccc2n1`
Result block: FALSE

Query block: Queued: `O=C1/C(=C/c2ccc(F)cc2)CN(C(=O)C(Cl)Cl)C/C1=C\c1ccc(F)cc1`
Result block: FALSE
